system: Carbonic anhydrase 1 (Homo sapiens, UniProt P00915)
Sequence (P00915 whole entry): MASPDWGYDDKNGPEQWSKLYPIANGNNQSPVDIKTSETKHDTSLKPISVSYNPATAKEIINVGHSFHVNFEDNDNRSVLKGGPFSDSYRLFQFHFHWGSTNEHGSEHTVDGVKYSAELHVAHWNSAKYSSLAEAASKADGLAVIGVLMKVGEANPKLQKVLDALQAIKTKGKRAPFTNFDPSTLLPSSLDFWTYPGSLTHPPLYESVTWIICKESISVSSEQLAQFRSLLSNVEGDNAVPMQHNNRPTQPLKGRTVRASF
Residues, ends and D or L forms follow the SMILES beside them. *: point of attachment. X1 = NS(=O)(=O)c1ccc(NC(=S)*)cc1
Assignment: determine reported Ki for the given compounds.
Respond with the bare value in nM.

Query block: Query (compound): NS(=O)(=O)c1ccc(NC(S)=NC(Cc2c[nH]cn2)C(=O)NC(Cc2ccccc2)C(=O)O)cc1 (centres undefined) ; field requested: Ki
Result block: 21

Query block: Given the entry NS(=O)(=O)c1ccc(N/C(S)=N/C(Cc2ccc(O)c(O)c2)C(=O)O)cc1 (centres undefined) , report its measured Ki.
Result block: 35

Query block: Could you tell me which Ki is on file for N=C(N)NCCCC(/N=C(\S)Nc1ccc(S(N)(=O)=O)cc1)C(=O)O (centres undefined) ?
Result block: 115

Query block: Field request: Ki | item: `NS(=O)(=O)c1ccc(N/C(S)=N\c2ccccc2C(=O)O)cc1`
Result block: 55

Query block: GET /values?readout=Ki&item= `NS(=O)(=O)c1ccc(N/C(S)=N\CCCC(=O)O)cc1`
Result block: 45

Query block: // Ki lookup, key: `NS(=O)(=O)c1ccc(NC(=S)N2CCC[C@H]2C(=O)NCC(=O)NCC(=O)O)cc1`
Result block: 20

Query block: What does the record list as Ki for NS(=O)(=O)c1ccc(N/C(S)=N/C(Cc2ccc(O)cc2)C(=O)O)cc1 (centres undefined) ?
Result block: 26

Query block: For the compound shown here, NS(=O)(=O)c1ccc(NC(=S)N[C@@H](CC(=O)O)C(=O)N[C@@H](CC(=O)O)C(=O)N[C@@H](CC(=O)O)C(=O)N[C@@H](CC(=O)O)C(=O)O)cc1 (X1-DDDD-OH) , give the reported Ki.
Result block: 59

Query block: Would you mind telling me what Ki value was observed for CC(/N=C(/S)Nc1ccc(S(N)(=O)=O)cc1)C(=O)O (centres undefined) ?
Result block: 54
